Provenance of the data: patent US10736883B2

Biological target: UniProtKB P35414
Sequence (P35414 whole entry): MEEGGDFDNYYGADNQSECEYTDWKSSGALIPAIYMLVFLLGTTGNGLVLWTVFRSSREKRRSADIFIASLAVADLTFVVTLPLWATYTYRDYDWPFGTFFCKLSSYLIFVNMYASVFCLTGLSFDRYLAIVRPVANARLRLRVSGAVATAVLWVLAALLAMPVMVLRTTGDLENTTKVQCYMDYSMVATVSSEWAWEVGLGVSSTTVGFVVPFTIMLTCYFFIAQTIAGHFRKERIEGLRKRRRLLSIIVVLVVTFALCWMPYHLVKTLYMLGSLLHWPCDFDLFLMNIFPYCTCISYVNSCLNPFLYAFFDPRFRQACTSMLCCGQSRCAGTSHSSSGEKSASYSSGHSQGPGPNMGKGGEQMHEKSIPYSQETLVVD
Assay: [35S]GTPγS binding assay on membranes from CHO cells stably expressing human APJ receptor
Details: membranes of CHO cells stably expressing human APJ receptor, means of several independent experiments, read-out: Activity hAPJ SPA EC50 IP
metric: EC50 (nM)
Give the quantity in nM, number only.

Worked cases, EC50 given:
compound | target_system | uom | EC50
COc1cccc(OC)c1-n1c(NS(=O)(=O)[C@H](C)Cc2ncc(Br)cn2)nnc1-c1ccco1 (single isomer, unassigned) [Example 36.0] | UniProtKB P35414 | nM | 3.5
COc1cccc(OC)c1-n1c(NS(=O)(=O)[C@H](C)[C@@H](O)c2ncc(F)cn2)nnc1-c1ccc(C)o1 [Example 211.0] | UniProtKB P35414 | nM | 4.1
COc1cccc(OC)c1-n1c(NS(=O)(=O)CCc2ncc(Cl)cc2CCN2CCOCC2)nnc1-c1ccco1 [Example 239.0] | UniProtKB P35414 | nM | 0.6
COc1cccc(OC)c1-n1c(NS(=O)(=O)CCc2ncc(C)cn2)nnc1-c1ccc(C)o1 [Example 26.0] | UniProtKB P35414 | nM | 0.42
Cc1ccc(-c2nnc(NS(=O)(=O)[C@@H](C)Cc3ncc(F)cn3)n2C2CCOCC2)o1 (racemic) [Example 317.0] | UniProtKB P35414 | nM | 310
COc1cccc(OC)c1-n1c(NS(=O)(=O)[C@@H](CCO)[C@H](C)c2ncc(C)cn2)nnc1-c1ccc(C)o1 (racemic) [Example 77.0] | UniProtKB P35414 | nM | 0.77
CC[C@H](Cc1ncc(F)cn1)S(=O)(=O)Nc1nnc(-c2ccco2)n1-c1c(OC)cccc1OC (single isomer, unassigned) [Example 136.0] | UniProtKB P35414 | nM | 19
COc1cccc(OC)c1-n1c(NS(=O)(=O)CCc2ncc(Cl)cc2C2=CCOCC2)nnc1-c1ccco1 [Example 215.0] | UniProtKB P35414 | nM | 0.22
COc1cccc(OC)c1-n1c(NS(=O)(=O)[C@H]2C[C@@H](O)CN(c3ncc(Cl)cn3)C2)nnc1-c1ccc(C)o1 (racemic) [Example 328.0] | UniProtKB P35414 | nM | 0.3
COc1cccc(OC)c1-n1c(NS(=O)(=O)CCc2ncc(Cl)cc2-c2cccnc2)nnc1-c1ccco1 [Example 221.0] | UniProtKB P35414 | nM | 0.3

The value of EC50 measured for the compound COc1cccc(OC)c1-n1c(NS(=O)(=O)[C@H](C)Cc2ncc(F)cn2)nnc1-c1cc(C)c(C)o1 (single isomer, unassigned) [Example 91.0] turned out to be 4.2

The value of EC50 measured for the compound COc1cccc(OC)c1-n1c(NS(=O)(=O)[C@H](C)[C@H](O)c2ccc(F)cc2CO)nnc1-c1ccc(C)o1 (single isomer, unassigned) [Example 73.0] turned out to be 0.49

The value of EC50 measured for the compound COc1ncnc(OC)c1-n1c(NS(=O)(=O)[C@@H](C)[C@H](C)c2ccc(Cl)cn2)nnc1-c1ccc(C)o1 [Example 400.0] turned out to be 0.1
